- system: human AR (Homo sapiens, UniProt P10275)
- Construct: expressed in transfected cells; host or cells: CV-1 cells (African green monkey kidney fibroblasts)
- Sequence (P10275 1-920): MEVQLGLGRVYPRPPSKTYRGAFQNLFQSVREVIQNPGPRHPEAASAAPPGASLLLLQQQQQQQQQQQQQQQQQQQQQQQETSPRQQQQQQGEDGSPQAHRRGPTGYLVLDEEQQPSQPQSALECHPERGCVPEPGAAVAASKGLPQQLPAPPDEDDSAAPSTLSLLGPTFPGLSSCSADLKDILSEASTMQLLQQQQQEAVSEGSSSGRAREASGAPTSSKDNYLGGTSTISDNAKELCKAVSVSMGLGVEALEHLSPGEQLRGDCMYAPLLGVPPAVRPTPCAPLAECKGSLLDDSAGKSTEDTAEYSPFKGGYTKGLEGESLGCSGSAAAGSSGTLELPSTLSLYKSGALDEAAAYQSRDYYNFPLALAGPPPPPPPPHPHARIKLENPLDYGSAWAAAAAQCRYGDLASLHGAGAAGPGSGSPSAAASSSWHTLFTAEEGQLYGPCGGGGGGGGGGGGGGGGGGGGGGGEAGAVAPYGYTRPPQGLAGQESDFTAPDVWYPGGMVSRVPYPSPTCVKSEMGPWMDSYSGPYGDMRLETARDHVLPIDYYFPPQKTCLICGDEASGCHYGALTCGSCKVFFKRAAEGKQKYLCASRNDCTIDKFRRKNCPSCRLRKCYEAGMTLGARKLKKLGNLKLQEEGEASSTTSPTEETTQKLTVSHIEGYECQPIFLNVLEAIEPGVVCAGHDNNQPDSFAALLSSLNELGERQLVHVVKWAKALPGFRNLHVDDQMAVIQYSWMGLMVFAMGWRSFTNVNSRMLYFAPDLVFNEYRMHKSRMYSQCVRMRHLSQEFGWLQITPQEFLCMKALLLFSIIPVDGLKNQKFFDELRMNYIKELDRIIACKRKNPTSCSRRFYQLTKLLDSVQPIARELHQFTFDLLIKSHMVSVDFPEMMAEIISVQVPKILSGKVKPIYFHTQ
- procedure-details: co-transfection assay, hAR in CV-1 cells (MTV-LUC reporter)
- Assay type: cell-based
- run-parameters: antagonist mode; maximal inhibition of DHT-induced luciferase production; hAR in CV-1 cells
Lab note: compare AR Antagonist CV-1 Cells Efficacy against 60%. Equal or greater, write y. Smaller, write n.

* C[C@@H]1Oc2c(ccc3[nH]c(=O)cc(C(F)(F)F)c23)N(CC(F)(F)F)[C@@H]1C (racemic) | n
* CN1CC(C)(C)Oc2c1ccc1[nH]c(=O)cc(C(F)(F)F)c21 | y
* CCCC1COc2c(ccc3[nH]c(=O)cc(C(F)(F)F)c23)N1C (racemic) | y

### Prompt Please check the record `C[C@@H]1COc2c(ccc3[nH]c(=O)cc(C(F)(F)F)c23)N1C` and state if its AR Antagonist CV-1 Cells Efficacy is at or above 60%.
### Response n

### Prompt What do you get for CCCC1COc2c(ccc3[nH]c(=O)cc(C(F)(F)F)c23)N1 (racemic) ?
### Response y

### Prompt Next: `CC[C@@H]1COc2c(ccc3[nH]c(=O)cc(C(F)(F)F)c23)N1`
### Response n

---

- system: MR (Homo sapiens, UniProt P08235)
- Sequence (P08235 whole entry): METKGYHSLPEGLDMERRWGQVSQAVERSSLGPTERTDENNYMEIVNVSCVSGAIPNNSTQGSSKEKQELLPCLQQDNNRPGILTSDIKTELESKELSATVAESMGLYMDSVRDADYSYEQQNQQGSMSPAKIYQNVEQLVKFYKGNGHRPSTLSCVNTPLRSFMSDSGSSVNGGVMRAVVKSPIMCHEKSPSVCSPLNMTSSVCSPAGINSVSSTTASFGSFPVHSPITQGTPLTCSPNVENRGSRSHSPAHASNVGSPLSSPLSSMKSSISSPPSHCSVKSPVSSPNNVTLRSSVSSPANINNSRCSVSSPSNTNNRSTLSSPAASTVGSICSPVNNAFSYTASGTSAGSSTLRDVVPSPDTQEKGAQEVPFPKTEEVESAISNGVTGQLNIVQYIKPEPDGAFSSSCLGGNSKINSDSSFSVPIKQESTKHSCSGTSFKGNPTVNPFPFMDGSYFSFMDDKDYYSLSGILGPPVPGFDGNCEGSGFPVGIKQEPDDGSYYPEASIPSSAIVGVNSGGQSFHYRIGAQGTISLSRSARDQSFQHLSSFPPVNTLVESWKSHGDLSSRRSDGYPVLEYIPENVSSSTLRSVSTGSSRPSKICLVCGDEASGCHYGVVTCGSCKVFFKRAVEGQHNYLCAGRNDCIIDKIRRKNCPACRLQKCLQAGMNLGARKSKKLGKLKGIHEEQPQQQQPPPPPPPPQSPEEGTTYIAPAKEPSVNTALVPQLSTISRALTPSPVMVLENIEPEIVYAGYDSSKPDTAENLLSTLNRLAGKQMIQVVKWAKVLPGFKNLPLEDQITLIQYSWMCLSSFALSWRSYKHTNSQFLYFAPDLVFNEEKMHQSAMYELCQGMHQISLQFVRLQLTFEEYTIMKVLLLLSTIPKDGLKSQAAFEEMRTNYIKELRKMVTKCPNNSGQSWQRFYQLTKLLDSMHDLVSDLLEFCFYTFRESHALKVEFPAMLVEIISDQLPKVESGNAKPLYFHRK
- procedure-details: co-transfection assay, MR
IC50 reference

### Prompt Request the reported IC50 associated with CC[C@@H]1COc2c(ccc3[nH]c(=O)cc(C(F)(F)F)c23)N1CC(F)(F)F [Compound 110]
### Response 1.27 µM

---

- system: human AR (Homo sapiens, UniProt P10275)
- Construct: expressed in transfected cells; host or cells: CV-1 cells (African green monkey kidney fibroblasts)
- procedure-details: co-transfection assay, hAR in CV-1 cells (MTV-LUC reporter)
- Type: cell-based
- run-parameters: agonist mode; luciferase production relative to DHT; hAR in CV-1 cells
endpoint-name: AR Agonist CV-1 Cells Efficacy

### Prompt Can you look up the measured AR Agonist CV-1 Cells Efficacy of C[C@@H]1COc2c(ccc3[nH]c(=O)cc(C(F)(F)F)c23)N1CC(F)(F)F [Compound 104] for me?
### Response 73%

---

# IC50 per entry
- system: GR (Homo sapiens, UniProt P04150)
- Sequence (P04150 whole entry): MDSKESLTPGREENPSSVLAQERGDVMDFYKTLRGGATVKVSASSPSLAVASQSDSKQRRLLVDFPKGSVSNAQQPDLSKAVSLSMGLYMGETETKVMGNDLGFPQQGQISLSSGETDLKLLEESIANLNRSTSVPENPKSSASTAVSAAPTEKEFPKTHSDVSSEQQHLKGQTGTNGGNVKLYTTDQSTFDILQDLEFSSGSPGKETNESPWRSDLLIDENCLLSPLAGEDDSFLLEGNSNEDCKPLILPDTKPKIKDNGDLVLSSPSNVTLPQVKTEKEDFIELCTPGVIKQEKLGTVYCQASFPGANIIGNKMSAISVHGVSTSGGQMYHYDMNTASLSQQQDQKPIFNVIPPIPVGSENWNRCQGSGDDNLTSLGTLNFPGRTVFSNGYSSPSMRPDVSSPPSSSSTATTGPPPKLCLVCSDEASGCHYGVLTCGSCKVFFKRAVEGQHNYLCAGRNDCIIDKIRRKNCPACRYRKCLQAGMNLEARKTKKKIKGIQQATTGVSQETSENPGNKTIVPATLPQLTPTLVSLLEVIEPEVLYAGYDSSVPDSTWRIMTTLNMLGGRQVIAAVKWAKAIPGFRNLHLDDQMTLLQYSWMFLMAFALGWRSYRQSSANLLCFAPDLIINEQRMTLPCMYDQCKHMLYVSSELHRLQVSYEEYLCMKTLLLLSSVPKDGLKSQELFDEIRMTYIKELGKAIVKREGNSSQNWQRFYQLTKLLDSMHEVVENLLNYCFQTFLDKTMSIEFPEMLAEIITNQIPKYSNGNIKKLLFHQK
- procedure-details: co-transfection assay, GR
Give a bare numeral; the unit µM is implied.

- CC(C)[C@@H]1COc2c(ccc3[nH]c(=O)cc(C(F)(F)F)c23)N1CC(F)(F)Cl [Compound 124]: 2.4

As a next step, examine the compound that follows.
### Prompt Endpoint output: IC50 of C=CCN1c2ccc3[nH]c(=O)cc(C(F)(F)F)c3c2OC[C@H]1CC [Compound 114] . Value?
### Response 5.9

---

- system: human AR (Homo sapiens, UniProt P10275)
- Construct: expressed in transfected cells; host or cells: CV-1 cells (African green monkey kidney fibroblasts)
- procedure-details: co-transfection assay, hAR in CV-1 cells (MTV-LUC reporter)
- Assay type: cell-based
- run-parameters: agonist mode; luciferase production relative to DHT; hAR in CV-1 cells
- Source text: The co-transfection assay provides a method for identifying functional agonists and partial agonists that mimic, or antagonists that inhibit, the effect of native hormones and quantifying their activity for responsive IR proteins. In this regard, the co-transfection assay mimics an in vivo system in the laboratory. […]
endpoint-name: AR Agonist CV-1 Cells Efficacy

### Prompt Query: AR Agonist CV-1 Cells Efficacy; subject: C[C@@H]1Oc2c(ccc3[nH]c(=O)cc(C(F)(F)F)c23)N(CC(F)(F)F)[C@@H]1C (racemic) [Compound 136]
### Response 61%

All values here come from patent US7214690B2.
